Cited source for all entries: patent US3976545A

Assay: in vitro
Settings: human, kb cells
Assay Readout: MCC

NC(=O)c1nc[nH]n1 [Compound 1, 1,2,4-Triazole-3-carboxamide] | 32 to 1000 µg/mL

Returns the measured MCC for the input compound. Input: NC(=S)c1nc[nH]n1 [Compound 2, 1,2,4-Triazole-3-thiocarboxamide]
≥ 1 µg/mL
